The measurements presented in this section are drawn from patent US11918662B2.

# Target system: MBP-HTT(1-89)Q46-His(6×) (“Exon1-Q46”) protein aggregates (Homo sapiens, UniProt P42858, INS38QQQQQQQQQQQQQQQQQQQQQQQQQ)
# Construct: MBP-HTT(1-89)Q46-His(6×); His(6×) (C); made in house
# Sequence (P42858 with tags, fused parts or gaps with the stated changes limits assumed): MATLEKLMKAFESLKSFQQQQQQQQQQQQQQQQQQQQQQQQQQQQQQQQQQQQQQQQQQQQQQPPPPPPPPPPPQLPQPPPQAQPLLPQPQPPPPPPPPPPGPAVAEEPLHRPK
# Assay details: Exon1-Q46 Radioligand Binding Assay
# Experimental conditions: displacement of 0.3 nM [3H3-methyl]-5-((5-methoxypyridin-2-yl)methoxy)-2-(pyrazin-2-yl)benzo[d]oxazole from 1 μM aggregated Exon1-Q46, 60 minutes at 37° C.; read-out: Potency Range (IC50)
Metric: IC50

                                   compound  metric         result
0  COc1ccnc(NC(=O)CCn2c(=O)c3cccn3c3ccc(F)cc32)c1 [Example 3-13]    IC50       < 100 nM
1  CN(C)CCNC(=O)CCn1c(=O)c2cccn2c2ccc(F)cc21 [Example 3-39]    IC50  100 to 500 nM
2  O=C(CCn1c(=O)c2cccn2c2ccc(F)cc21)N1CCc2ccccc2C1 [Example 3-44]    IC50       < 100 nM
3  O=C(CCCn1c(=O)c2cccn2c2ccc(F)cc21)Nc1ccccc1Cl [Example 1-25]    IC50       < 100 nM

We next turn to a different compound, shown below.
Challenge: Return IC50 (reported value) for this compound: O=C(CCn1c(=O)c2cccn2c2ccc(F)cc21)N1CCc2ccncc2C1 [Example 3-52]
Response given: < 100 nM
